System: sorghum
TEST_DESCRIPTION: Test C preemergence/postemergence greenhouse plant response rating 0 to 100
Format: in vivo, Sorghum bicolor
CONDITION: POSTEMERGENCE; Rate 4 g/ha
ENDPOINT_NAME: Plant response rating (0 to 100), Sorghum
Give the figure only, with no unit attached.

CC(C)N1C(=O)COc2cc(F)c(-c3nn4c(c3Cl)CCCC4)cc21 = 40

q: Returns the measured Plant response rating (0 to 100), Sorghum for the input compound. Input: COC(=O)C(C)Oc1cc(-c2nn3c(c2Cl)CCCC3)c(F)cc1Cl (centres unmarked)
a: 20

q: Returns the measured Plant response rating (0 to 100), Sorghum for the input compound. Input: C#CCN1C(=O)COc2cc(F)c(-c3nn4c(c3Cl)CCCC4)cc21
a: 40

q: Returns the measured Plant response rating (0 to 100), Sorghum for the input compound. Input: CCN1C(=O)COc2cc(F)c(-c3nn4c(c3Cl)CCCC4)cc21
a: 40

q: Returns the measured Plant response rating (0 to 100), Sorghum for the input compound. Input: C#CCN1C(=O)COc2cc(F)c(-c3nn4c(c3Br)CCCC4)cc21
a: 30

q: Returns the measured Plant response rating (0 to 100), Sorghum for the input compound. Input: COCN1C(=O)COc2cc(F)c(-c3nn4c(c3Br)CCCC4)cc21
a: 30

q: Returns the measured Plant response rating (0 to 100), Sorghum for the input compound. Input: C#CC(C)Oc1cc(-c2nn3c(c2Br)CCCC3)c(F)cc1Cl (centres unmarked)
a: 30

q: Returns the measured Plant response rating (0 to 100), Sorghum for the input compound. Input: COc1cc(-c2nn3c(c2Cl)CCCC3)c(F)cc1Cl
a: 0

---

System: sugar beet
TEST_DESCRIPTION: Test B preemergence/postemergence greenhouse plant response rating 0 to 10
Type: in vivo, Beta vulgaris
CONDITION: PREEMERGENCE, Rate 50 g/ha; 0 to 10 scale
The following compounds are shown together with reported Plant response rating, Sugar beet values.
Give the figure only, with no unit attached.

COCOc1cc(-c2nn3c(c2Cl)CCCC3)c(F)cc1Cl = 9
O=C1COc2cc(F)c(-c3nn4c(c3Cl)CCCC4)cc2N1 = 10

Continue with the compound presented below.
q: Returns the measured Plant response rating, Sugar beet for the input compound. Input: C#CC(C)Oc1cc(-c2nn3c(c2Br)CCCC3)c(F)cc1Cl (stereo not drawn)
a: 8

---

System: alfalfa
TEST_DESCRIPTION: Test G preemergence/postemergence greenhouse plant response rating 0 to 100
Format: in vivo, Medicago ativa
CONDITION: PREEMERGENCE, Rate 250 g/ha, 0 to 100 scale
ENDPOINT_NAME: Plant response rating, Alfalfa Var.
Give the figure only, with no unit attached.

Study these solved cases before continuing.
COC(=O)C(C)Oc1cc(-c2nn3c(c2Cl)CCCC3)c(F)cc1Cl (centres unmarked) = 0
Fc1cc(Cl)c(OCc2ccccc2)cc1-c1nn2c(c1Cl)CCCC2 = 0
COc1cc(-c2nn3c(c2Cl)CCCC3)c(F)cc1Cl = 0
C#CCOc1cc(-c2nn3c(c2Br)CCCC3)c(F)cc1Cl = 60

q: Returns the measured Plant response rating, Alfalfa Var. for the input molecule. Input: C#CCN1C(=O)COc2cc(F)c(-c3nn4c(c3Cl)CCCC4)cc21
a: 100
